Data provenance is patent US12448388B2.

# TEST: Pharmacokinetics in cassette in male Sprague-Dawley rats for Kp measurement
# Format: in vivo
# TEST CONTEXT: intravenous, 1 mg/kg, brain Kpu,u = Kp * (plasma free/rat brain free), read-out: Rat brain Kpu,u
ENDPOINT NAME: Kp
Just the number, please.

Use the examples below as a reference point.
Nc1nc2cnc(C(=O)N3CCC[C@@H]4Oc5cc(OC(F)(F)F)cc(F)c5[C@@H]43)cc2n2cncc12 (single isomer, unassigned) | 0.05
C[C@H]1CN(C(=O)c2cc3c(cc2F)nc(N)c2cncn23)[C@H]2c3cc(F)c(C(F)F)cc3C[C@H]2O1 (single isomer, unassigned) | 0.03
Cc1ncn2c1c(N)nc1cnc(C(=O)N3CCC[C@@H]4Oc5cc(C(F)(F)F)ccc5[C@@H]43)cc12 | 0.15
C[C@H]1CN(C(=O)c2cc3c(cc2F)nc(N)c2cncn23)[C@H]2c3ccc(C(F)(F)F)cc3C[C@H]2O1 (single isomer, unassigned) | 0.04
Nc1nc2cnc(C(=O)N3CCC[C@@H]4Oc5c(ccc(C(F)(F)F)c5F)[C@@H]43)cc2n2cncc12 | 0.02

Ask | Quickly give me recorded Kp for Nc1nc2cnc(C(=O)N3CCC[C@@H]4Oc5cc(OC(F)(F)F)ccc5[C@@H]43)cc2n2cncc12
Reply | 0.11
